The reported numbers originate from paper PMC10747453.

System: osteogenically differentiating human embryonic stem cells and fibroblasts
Test: hESTo biostatistical prediction model (embryotoxicity class)
Settings: hESTo, skeletal differentiation
test_readout: Embryotoxicity classification by the biostatistical model, in words

1. CN1CCC[C@H]1c1cccnc1 | non-embryotoxic
2. CN1C(=O)CC[C@H]1c1cccnc1 | non-embryotoxic
3. C=CC(N)=O [Acrylamide, acrylamide] | non-embryotoxic

* * *

Assay: in vitro
Conditions: human
Parameter: IC50 at 20 days. Scope: all listed entries.
test_readout: IC50 at 20 days (µg/mL)

1) c1ccc2c(c1)cc1ccc3cccc4ccc2c1c34 [Benzo[a]pyrene, benzo[a]pyrene] | 52.9
2) c1ccc2ncccc2c1 [Quinoline, quinoline] | 2.65
3) c1ccc2c(c1)-c1cccc3c1c-2cc1ccccc13 [Benzo[b]fluoranthene, benzo[b]fluoranthene] | 61
4) O=c1ccc2ccccc2o1 [Coumarin, coumarin] | 0.013
5) CN1C(=O)CC[C@H]1c1cccnc1 [Cotinine, cotinine] | 341
6) CC1=C(/C=C/C(C)=C/C=C/C(C)=C/C(=O)O)C(C)(C)CCC1 [All-trans retinoic acid, all-trans retinoic acid, reference compound] | 0.036
7) Oc1ccccc1O [Catechol, catechol] | 0.071
